system.name: T1, retinoblastoma protein pocket domain (Rb^P), wild type (human, UniProt P06400 380-788)
T1 construct: also called WT Rb^P; WT
T1 sequence (looked up): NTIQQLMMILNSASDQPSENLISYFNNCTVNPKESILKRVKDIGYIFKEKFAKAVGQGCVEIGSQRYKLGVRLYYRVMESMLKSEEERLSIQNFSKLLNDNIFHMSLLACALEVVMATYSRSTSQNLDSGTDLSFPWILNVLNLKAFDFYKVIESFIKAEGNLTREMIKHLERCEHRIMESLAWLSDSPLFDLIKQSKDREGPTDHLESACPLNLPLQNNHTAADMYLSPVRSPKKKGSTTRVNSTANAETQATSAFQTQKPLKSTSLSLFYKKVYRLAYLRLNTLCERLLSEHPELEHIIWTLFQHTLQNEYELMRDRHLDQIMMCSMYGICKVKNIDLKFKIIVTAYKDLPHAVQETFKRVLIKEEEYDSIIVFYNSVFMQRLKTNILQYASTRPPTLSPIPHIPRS
experimental.details: fluorescence polarisation; 25 °C after warming to 37 °C (7 min ramp, 2 min at 37 °C), 1 min on ice and 3 min at 25 °C; unlabeled Rb^P against 1.5 nM TMR-E2F1^TD or 7.5 nM TMR-E7^LxCxE; 25 mM Tris pH 8.0, 200 mM NaCl, 1 mM DTT, 0.1% Tween-20; apparent Kd
measurement.parameters: both partners purified
No end group written: not given here. TMR = tetramethyl rhodamine dye
Each item that follows carries a reported Kd.
Report only the number, with the unit nM understood.

Prompt: Reported Kd for {TMR}-GEGIRDLFDCDFGDLTPLD (also called E2F^TD; source: synthetic peptide, bought: GenScript) [TMR-E2F1^TD, peptide of the E2F1 transactivation domain] : what is it?
Response: 17

Prompt: Reported Kd for DLYCYEQLN (also: TMR label, position not given here, source: synthetic peptide, bought: GenScript) [TMR-E7^LxCxE, LxCxE peptide of the E7 oncoprotein from HPV] : what is it?
Response: 7
